The reported numbers originate from the supplement of paper PMC8967900.

- Test system: COG-LL-394h
- assay method text: selective drug sensitivity score (sDSS, relative to normal bone marrow) (sDSS (score)); higher = more potent and effective on the cell line relative to normal bone marrow cells;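 also: ALL cell lines in 384-well plates, five doses spanning 10,000-fold, each plate scaled between vehicle and 100 µmol/L benzalkonium chloride controls, sDSS an adapted area-under-curve metric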
- test conditions: 72 h
measurement type: selective drug sensitivity score
Give bare numbers.

Batch request: selective drug sensitivity score for each of the following compounds.
1. C[C@H]1C[C@@H](n2c(Nc3ccc(OC(F)(F)F)cc3)nc3cc(CCC(=O)O)ccc32)CC(C)(C)C1 (top concentration 10000 nM)
2. CN[C@@H]1C[C@H]2O[C@@](C)([C@@H]1OC)n1c3ccccc3c3c4c(c5c6ccccc6n2c5c31)C(=O)N[C@H]4O [UCN-01] (top concentration 10000 nM)
3. COc1cccc2c1C(=O)c1c(O)c3c(c(O)c1C2=O)C[C@@](O)(/C(CO)=N/NC(=O)CCCCCN1C(=O)C=CC1=O)C[C@@H]3O[C@H]1C[C@H](N)[C@H](O)[C@H](C)O1 [Aldoxorubicin] (top concentration 1000 nM)
4. Cc1ccc(-c2cc(C(F)(F)F)nn2-c2ccc(S(N)(=O)=O)cc2)cc1 [Celecoxib] (top concentration 10000 nM)
5. CCCCCCCCCCCCCCCCOP(=O)([O-])OCC[N+](C)(C)C [Miltefosine] (top concentration 100000 nM)
6. O=C1NC(=O)[C@@H](c2cn3c4c(cccc24)CCC3)[C@@H]1c1c[nH]c2ccccc12 [Tivantinib] (top concentration 1000 nM)
7. CC(C)(C)c1nc(-c2cccc(NS(=O)(=O)c3c(F)cccc3F)c2F)c(-c2ccnc(N)n2)s1 [Dabrafenib] (top concentration 2500 nM)
8. COc1cc([C@@H]2c3cc4c(cc3[C@@H](O[C@@H]3O[C@@H]5CO[C@@H](C)O[C@H]5[C@H](O)[C@H]3O)[C@H]3COC(=O)[C@H]23)OCO4)cc(OC)c1O [Etoposide] (top concentration 10000 nM)

1. -0.14
2. -1.46
3. 8.24
4. -0.06
5. -1.54
6. -0.42
7. -0.22
8. 7.04

Batch request: selective drug sensitivity score for each of the following compounds.
1. CN1CCN(C2CCC(n3cc(-c4ccc(Oc5ccccc5)cc4)c4c(N)ncnc43)CC2)CC1 (stereo unspecified) (top concentration 10000 nM)
2. CCN(c1cc(-c2ccc(CN3CCOCC3)cc2)cc(C(=O)NCc2c(C)cc(C)[nH]c2=O)c1C)C1CCOCC1 [Tazemetostat] (top concentration 10000 nM)
3. COc1cc(Nc2c(C#N)cnc3cc(OCCCN4CCN(C)CC4)c(OC)cc23)c(Cl)cc1Cl [Bosutinib] (top concentration 10000 nM)

4.42
-0.08
1.16

* * *

Record form. Attribute: selective drug sensitivity score. Fill in for each entry.
- Test system: KARPAS-45
- assay method text: selective drug sensitivity score (sDSS, relative to normal bone marrow) (sDSS (score)); higher = more potent and effective on the cell line relative to normal bone marrow cells
- test conditions: 72 h
Answers are plain numbers.

Consider the worked cases shown below.
Nc1cccc2c1C(=O)N(C1CCC(=O)NC1=O)C2=O (centres undefined) [Pomalidomide] (top concentration 10000 nM)    -0.26
CON(C)C(=O)N1N=C(c2cc(F)ccc2F)S[C@@]1(CCCN)c1ccccc1 [Filanesib] (top concentration 1000 nM)    20.9
Cc1c(-c2c(-c3ccc(F)o3)sc3ncnc(O[C@H](Cc4ccccc4OCc4ccnn4CC(F)(F)F)C(=O)O)c23)ccc(OCCN2CCN(C)CC2)c1Cl (top concentration 1000 nM)    -0.24

We next turn to a different molecule, shown below.
Given the molecule CCn1c(-c2nonc2N)nc2c(C#CC(C)(C)O)ncc(OC[C@H]3CCCNC3)c21 (top concentration 10000 nM) , write its reported selective drug sensitivity score. 6.28
